Source listed as PubChem BioAssay (NCI).

- Test system: SK-MEL-5 melanoma
- PROCEDURE DETAILS: NCI-60 one-dose screen, 48 h (100 = growth as untreated, 0 = no growth, -100 = all killed)
- CONDITION PARAMETERS: 10 µM unless noted
This is part of a sample that, as a whole, favours compounds with a hit. Of some 83,000 tested, about 20% had one in any assay.
The label criterion met is reserved for growth strictly under 90%; criterion not met covers values equal to or above it.

>>> class("O=S(=O)(NCCCNc1nccc(-c2c(-c3ccc(F)c(O)c3)nc3sccn23)n1)c1ccc(F)cc1")
"criterion met"
>>> class("Cc1cc(C)c(C=O)c(C)c1")
"criterion not met"
>>> class("CN(C)c1ccc(-c2c(C#N)c(N)n3nc(N)c(C#N)c3c2C#N)cc1")
"criterion met"
>>> class("Cc1ccc(C2CC(c3cccc(Nc4ccncc4)c3)=NN2c2ccc(Cl)cc2)cc1 (stereo unspecified)")
"criterion met"
>>> class("O=C1CCC(NC(=S)Nc2ccccc2)N1 (stereo unspecified)")
"criterion not met"
>>> class("COc1ccccc1/C=C1\\Oc2cc(OCCCN3CCCC3)ccc2C1=O")
"criterion met"
>>> class("CCn1cc(C2NC(=O)c3ccccc3N2)c2cccc(C)c21 (stereo unspecified)")
"criterion met"
>>> class("CC(C)Sc1nc(NN)c(C#N)c(-c2ccccc2)n1")
"criterion not met"
>>> class("Clc1nc(Cl)c2ncn(CCOCCn3cnc4c(Cl)nc(Cl)nc43)c2n1")
"criterion met"
>>> class("O=C1NC(=S)NC(=O)C1=Cc1cn(Cc2ccccn2)c2ccccc12")
"criterion met"
>>> class("Cc1ccc(Nc2cc(=S)nc(N)[nH]2)cc1C")
"criterion not met"
>>> class("Cc1c([N+](=O)[O-])cc(C(C)(C)C)cc1[N+](=O)[O-]")
"criterion not met"
>>> class("CCNC(=O)c1[nH]cc(-c2ccc(OC)cc2)c1-c1cc(OC)cc(OC)c1")
"criterion met"
>>> class("CC(C)CCSc1nc(NNC(N)=O)c(C#N)c(-c2ccccc2)n1")
"criterion not met"
>>> class("COc1ccc(Cn2nc(-c3ccccc3)c3c2CCc2cnoc2-3)cc1")
"criterion met"
>>> class("CN1CCN(c2cc(F)c(NC3=C(Cl)C(=O)c4ncccc4C3=O)c(F)c2)CC1")
"criterion met"
>>> class("CCOC(=O)c1c(SC)nn(-c2cc(=O)[nH]c3ccc(Br)cc23)c1N")
"criterion not met"
>>> class("C[C@H]1[C@H](C)CC[C@]2(CO)CC[C@]3(C)C(=CC[C@@H]4[C@@]5(C)Cc6c([nH]c7ccccc67)C(C)(C)[C@@H]5CC[C@]43C)[C@H]12")
"criterion not met"
>>> class("O=c1[nH]c2c(s1)CCCC2CN1CCCCC1 (stereo unspecified)")
"criterion not met"
>>> class("COc1ccc(Cn2nc3c(c2-c2cc(OC)c(OC)c(OC)c2)-c2oncc2CC3)cc1")
"criterion met"
>>> class("CC1(c2ccccc2)NC(=O)N(CC(=O)Nc2cccc(I)c2)C1=O (stereo unspecified)")
"criterion met"
>>> class("COc1ccc(C2CC(c3cccc(Nc4ccncc4)c3)=NN2c2ccc(Cl)cc2)cc1 (stereo unspecified)")
"criterion met"
>>> class("O=S(=O)(O)c1cc(O)c2c(N=Nc3ccc(Nc4ccccc4)c4c(S(=O)(=O)O)cccc34)cc(S(=O)(=O)O)cc2c1")
"criterion not met"
>>> class("CCOC(=O)c1c(O)cc(-c2ccccc2)cc1-c1sc(N(C)Cc2ccccc2)nc1Cl")
"criterion not met"
>>> class("CC(=O)OC1CCC2(C)C(CCC3C4CC=C(C(C)=O)C4(C)OC(=O)CC32)C1 (stereo unspecified)")
"criterion met"
>>> class("CC1(C)[C@H](O)CC[C@]2(C)[C@@H]1CC[C@@]13C[C@@H](CC[C@H]12)[C@@](O)(CO)C3")
"criterion not met"
>>> class("Cc1c2c(cc[n+]1Cc1ccc(F)cc1)c1ccc(OCc3cccc(F)c3)cc1n2Cc1cccc(F)c1")
"criterion met"
>>> class("Cc1ccc(C(c2c(O)c3cc(Br)ccc3[nH]c2=O)c2c(O)c3cc(Br)ccc3[nH]c2=O)cc1")
"criterion met"
>>> class("CCCCOc1ccc(/C=N/Nc2cc(C)nc3ccc(Cl)cc23)cc1")
"criterion met"
>>> class("CC(=O)N1c2ccccc2NC2=C(C(=O)N(Cc3ccccc3)C2(C)C)C1c1ccco1 (stereo unspecified)")
"criterion met"
>>> class("COc1ccc(/C=C(/c2ccccc2)[N+](=O)[O-])cc1")
"criterion met"
>>> class("Clc1ccc2c(c1)c(-c1ccccc1)nc1nncn12")
"criterion not met"
>>> class("COc1cccc(C(Cc2ccccc2)Nc2ccccc2)c1OC (stereo unspecified)")
"criterion not met"
>>> class("Cc1ccccc1-c1cc(Cc2ccc(F)cc2)c(=O)[nH]n1")
"criterion not met"
>>> class("COc1cc2c(cc1[N+](=O)[O-])-c1ccc([N+](=O)[O-])cc1/C2=N\\O")
"criterion met"
>>> class("COc1ccc(C(=O)c2cc3c(N)c(C(=O)Nc4cccc(OC)c4)sc3nc2C)cc1")
"criterion met"
